# system tested: T1, CRTH2R (UniProt Q9Y5Y4 1-395, limits assumed)
# T1 construct: whole, on cells; also called Prostaglandin D2 receptor 2 (DP2 or CRTH2) receptor
# T1 sequence (looked up): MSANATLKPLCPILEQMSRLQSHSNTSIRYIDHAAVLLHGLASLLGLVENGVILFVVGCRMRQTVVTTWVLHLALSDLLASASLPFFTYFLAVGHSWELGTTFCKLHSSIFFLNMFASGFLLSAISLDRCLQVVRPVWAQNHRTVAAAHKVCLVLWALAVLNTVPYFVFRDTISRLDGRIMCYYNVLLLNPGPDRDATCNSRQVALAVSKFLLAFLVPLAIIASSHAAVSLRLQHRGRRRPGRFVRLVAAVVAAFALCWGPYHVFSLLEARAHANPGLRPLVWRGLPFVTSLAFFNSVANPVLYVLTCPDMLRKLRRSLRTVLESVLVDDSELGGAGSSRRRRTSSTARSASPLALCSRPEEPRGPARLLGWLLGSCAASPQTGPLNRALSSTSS
# assay comment: flow cytometry (MFI), CHO CRTH2R-positive cells against parental CHO cells, 3-fold titration from 100 nM; grey = CRTH2R cells, black = parental cells (no legend on the panel)
measurement label: EC50

# count of solved cases: 2
{"columns": ["binder", "EC50"],
 "data": [
  ["CRTH2 57 (antibody, V domains shown) VH: QVQLVQSGAEVKKPGSSVKVSCKASGGTFSSYAMSWVRQAPGQGLEWMGGIIPLFGTTDYAQKFQGRVTITADESTSTAYMELSSLRSEDTAVYYCARANQHFVKIQGAPVSTPVPGFGTTGYHYYGMDVWGQGTLVTVSS VL: QSVLTQPPSVSAAPGQKVTISCSGSSSNIEDNYVSWYQQLPGTAPKLLIYDNFKRPSGIPDRFSGSKSGTSATLGITGLQTGDEADYYCGTWDTSLSAALFGGGTKLTVL", "158 nM"],
  ["CRTH2-27 (antibody, V domains shown, CRTH2R IgG) VH: QVQLVESGGGVVQPGRSLRLSCAASGFTFDNYGMHWVRQAPGKGLEWVAVISYEGSNKKYADSVKGRFTISRDNSKNTLYLQMNSLRAEDTAVYYCARDMYYDFGSIYGEDVVGELPEVVPADDAFDIWGQGTLVTVSS VL: QSALTQPASVSGSPGQSITISCTGTSNDVGAYNFVSWYQQHPGKAPKLMIYDISNRPSGVSNRFSGSKSGNTASLTISGLQAEDEADYYCSSYTRSNTRVFGGGTKLTVL", "42 nM"]
]}

Now look at this entry.
Form: binder = CRTH2-45 (antibody, CRTH2R IgG) VH: QVQLVESGGGVVQPGRSLRLSCAASGFTFSHYAMHWVRQAPGKGLEWVADISHEGSNKYYADSVKGRFTISRDNSKNTLYLQMNSLRAEDTAVYYCARDGRGSLPRPKGGPTSGGGFSTNIGYGFVVQSYDSSEDSGGAFDIWGQGTLVTVSS VL: QSVLTQPPSVSAAPGQKVTISCSGTSSNIENNYVSWYQQLPGTAPKLLIYDNVKRPSGIPDRFSGSKSGTSATLGITGLQTGDEADYYCGTWDNTVSAPWVFGGGTKLTVL ; EC50 = 23.2 nM

Origin of values: patent US20210102195A1
